test system: HOP-92; experiment: NCI tumour cell line growth inhibition, 48 h
The source made the active and inactive calls. Cut-off read from the data, not from the text of the source: active = GI50 up to about 1.1 µM and inactive = higher.
Select the correct class. Options are 1 = active, -1 = inactive and nothing else.

# example entries with known answers
[[record]]
compound = "C#C[C@H](CCCC)OC(=O)N[C@H](C)c1ccccc1"
class_label = -1

[[record]]
compound = "CCOC(=O)CCc1c(C(=O)OCC)[nH]c(/C=C2/NC(=O)C(C)=C2CC)c1C"
class_label = -1

[[record]]
compound = "CC1CCC(=O)C(C(O)CC2CC(=O)N(c3ccccc3)C(=O)C2)C1 (centres undefined)"
class_label = -1


Q: How was COC(=O)C1(F)C(=O)NC(=O)NC1O (centres undefined) classified in this test?
A: -1

Q: How was NCC(O)CN.Oc1c(Cl)c(Cl)c(Cl)c(Cl)c1Cl classified in this test?
A: -1

Q: How was C[C@]12CC[C@H](O)C[C@H]1CC[C@@H]1[C@@H]2CC[C@]2(C)[C@@H](C3=CC(=O)OC3)CC[C@]12O classified in this test?
A: 1

Q: How was O=C(O[C@H](/C=C/c1ccccc1)P1(=O)N(Cc2ccccc2)[C@H]2CCCC[C@@H]2N1Cc1ccccc1)c1ccccc1 classified in this test?
A: -1

Q: How was C/C(=N\N=C(/S)N1CCCCCC1)c1cccc[n+]1[O-] classified in this test?
A: -1

Q: How was CC(=O)n1nnc2ccc([N+](=O)[O-])cc21 classified in this test?
A: -1

Each recorded value in this set is attributed to ChEMBL document CHEMBL1201862.
